Could you please report measured normalized growth for the items listed next?
- TEST DESCRIPTION: chemical genetic growth profiling, strain panel (AID 1159580);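 further: tested at 20 µM; growth read once vehicle control cultures reached saturation at 30 °C; 1 = growth at the plate median or of vehicle wells; lower values mean less growth of the strain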
- CONDITION INFO: S. cerevisiae deletion strains, growth OD, locus YGL240W, strain doc1, hits give low values
The campaign covered roughly 5,500 compounds. About 2,000 (36%) were called active. About 18% were inconclusive and are not listed. Some of the results follow.
Hey, just send me the number, nothing else.

Ask: Hello, please tell me recorded normalized growth for this one: N[C@@H]1CONC1=O
Reply: 1.01

Ask: Hello, please tell me recorded normalized growth for this one: Nc1ccc(C(=O)O)c(O)c1
Reply: 0.997

Ask: Hello, please tell me recorded normalized growth for this one: COc1c(O)cccc1O
Reply: 1.02

Ask: Hello, please tell me recorded normalized growth for this one: O=c1c(-c2cc(O)c(O)c(O)c2)coc2cc(O)c(O)c(O)c12
Reply: 1.04

Ask: Hello, please tell me recorded normalized growth for this one: O=C(O)/C=C(\CC(=O)O)C(=O)O
Reply: 0.974

Ask: Hello, please tell me recorded normalized growth for this one: COC(=O)C1=C(C)NC(C)=C(C(=O)OCC(C)C)C1c1ccccc1[N+](=O)[O-] (stereo not drawn)
Reply: 0.259

Ask: Hello, please tell me recorded normalized growth for this one: CC(=O)Nc1cccc(O)c1
Reply: 0.977

Ask: Hello, please tell me recorded normalized growth for this one: CC(C)Oc1ccc2c(=O)cc(-c3ccccc3)oc2c1
Reply: 0.901

Ask: Hello, please tell me recorded normalized growth for this one: CC(=O)O.CC(=O)O.[Cd]
Reply: 0.711

Ask: Hello, please tell me recorded normalized growth for this one: CCCCCCCCCCCCCCCC[n+]1ccccc1
Reply: 0.0671

Ask: Hello, please tell me recorded normalized growth for this one: COc1cc2c(cc1OC)-c1cc3ccc(OC)c(OC)c3c[n+]1CC2
Reply: 0.969

Ask: Hello, please tell me recorded normalized growth for this one: C/C(=C\C(=O)OCCCCCCCCC(=O)O)C[C@@H]1OC[C@H](C[C@@H]2O[C@H]2[C@@H](C)[C@H](C)O)[C@@H](O)[C@H]1O
Reply: 1.01

Ask: Hello, please tell me recorded normalized growth for this one: C[n+]1cc2c3c(ccc2c2ccc4cc5c(cc4c21)OCO5)OCO3
Reply: 0.396

Ask: Hello, please tell me recorded normalized growth for this one: COC(=O)C1=C(C)NC(C)=C(C(=O)OC)C1c1ccccc1[N+](=O)[O-]
Reply: 0.96

Ask: Hello, please tell me recorded normalized growth for this one: O=C(/C=C/c1ccccc1)c1ccc(O)cc1
Reply: 0.358

Ask: Hello, please tell me recorded normalized growth for this one: CCC(/C=C/[C@@H](C)[C@H]1CCC2C3CC=C4C[C@@H](O)CC[C@]4(C)C3CC[C@@]21C)C(C)C (stereo partly drawn)
Reply: 0.998

Ask: Hello, please tell me recorded normalized growth for this one: COc1ccc(-c2cc(=O)c3ccccc3o2)cc1OC
Reply: 0.772

Ask: Hello, please tell me recorded normalized growth for this one: CC(=O)Oc1ccc(-c2cc(=O)c3c(OC(C)=O)cc(OC(C)=O)cc3o2)cc1
Reply: 0.962

Ask: Hello, please tell me recorded normalized growth for this one: COc1ccc(C(=O)/C=C/c2ccccc2)cc1
Reply: 0.762

Ask: Hello, please tell me recorded normalized growth for this one: COc1ccc(-c2cc(=O)c3ccccc3o2)cc1
Reply: 0.756

Ask: Hello, please tell me recorded normalized growth for this one: CC(=O)OCC(=O)[C@@]1(O)CCC2C3CC[C@@H]4C[C@H](O)CC[C@]4(C)C3C(=O)C[C@@]21C (stereo partly drawn)
Reply: 1.03

Ask: Hello, please tell me recorded normalized growth for this one: O=c1oc2ccccc2c(O)c1Cc1c(O)c2ccccc2oc1=O
Reply: 0.984

Ask: Hello, please tell me recorded normalized growth for this one: COC(=O)C1=C(C)NC(C)=C(C(=O)OCCN(C)Cc2ccccc2)C1c1cccc([N+](=O)[O-])c1 (stereo not drawn)
Reply: 0.97
